# Method description: Radiochemical purity by HPLC of ^99mTc-labeled compounds
# Type: physicochemical
# Measurement parameters: 99Tc-labeled compounds
# Method: 100-500 MBq of ^99mTcO4 (in saline) were mixed with 11 μl of 0.5 M phosphate buffer pH 11.5-12.0 and 1.1 μl of 0.1 M trisodium citrate per 100 μl radionuclide solution. […] The mixture was incubated for 30 min at 25-50′° C. At the end of the incubation time, the mixture was neutralized with 3.0 μl 1 M HCl per 10 μl phosphate buffer and TWEEN-20 was added at a final concentration of 0.100.
Numbered stars: 1 amine (or outer) side, 2 acyl side, 3 side chain; on linkers, the order of the positions; unused ones are H or OH. Bridge positions count the residues as written; N and C are the ends. Square brackets hold non-standard residues; d marks the D form. Peptide text beside a SMILES is read from it. * marks the point of attachment. ξ: configuration not given here. X1 = NCCNCC(CNCCN)C(=O)N1CCN(CC(=O)NCCCOCCOCCOCCCN*)CC1; Pyridine(3,5-bisCH2) = c1ncc(C[*:2])cc1C[*:1]; mXylylene = c1cc(C[*:1])cc(C[*:2])c1; Suc = O=C(CCC(=O)[*:2])[*:1]; Nle = CCCC[C@H](N)C(=O)O; ξC = NC(CS)C(=O)O; βAla = NCCC(=O)O
Field: HPLC Area % appr. 4 h post end of synthesis. Provide a value for each of the molecules that follow.
Numbers only, in %.

CCCC[C@H](NC(=O)CCC(=O)NCCCOCCOCCOCCCNC(=O)CN1CCN(C(=O)C(CNCCN)CNCCN)CC1)C(=O)N[C@H]1CSCc2cccc(c2)CSC[C@@H](C(=O)NCCC(=O)O)NC(=O)[C@H](Cc2ccccc2)NC(=O)[C@H](CCC(=O)O)NC(=O)[C@H]([C@@H](C)O)NC(=O)[C@@H]2CCCN2C(=O)[C@@H]2CCCN2C1=O [3BP-4784] ({X1-Suc}-[Nle]CPPTEFC[βAla]-OH; linker 2-8 via mXylylene) ... 94.9
CCCC[C@H](NC(=O)CCC(=O)NCCCOCCOCCOCCCNC(=O)CN1CCN(C(=O)C(CNCCN)CNCCN)CC1)C(=O)N[C@H]1CSCc2cncc(c2)CSCC(C(=O)O)NC(=O)[C@H](Cc2ccccc2)NC(=O)[C@H](CCC(=O)O)NC(=O)[C@H]([C@@H](C)O)NC(=O)[C@@H]2CCCN2C(=O)[C@@H]2CCCN2C1=O (stereo partly drawn) [3BP-4775] ({X1-Suc}-[Nle]CPPTEF[ξC]-OH; linker 2-8 via Pyridine(3,5-bisCH2)) ... 88.1

Let us move to another entry and its HPLC Area % appr. 4 h post end of synthesis.
Item CCCC[C@H](NC(=O)CCOCCOCCOCCOCCOCCOCCNC(=O)C(CNCCN)CNCCN)C(=O)N[C@H]1CSCc2cccc(c2)CSCC(C(=O)O)NC(=O)[C@H](Cc2ccccc2)NC(=O)[C@H](CCC(N)=O)NC(=O)[C@H]([C@@H](C)O)NC(=O)[C@@H]2CCCN2C(=O)[C@@H]2CCCN2C1=O (stereo partly drawn) : provide HPLC Area % appr. 4 h post end of synthesis
90.8

====

# Method description: in vivo
# Measurement parameters: swiss nude, mouse, tumor, iv
Numbered stars: 1 amine (or outer) side, 2 acyl side, 3 side chain; on linkers, the order of the positions; unused ones are H or OH. Bridge positions count the residues as written; N and C are the ends. Square brackets hold non-standard residues; d marks the D form. Peptide text beside a SMILES is read from it. * marks the point of attachment. ξ: configuration not given here. X1 = NCCNCC(CNCCN)C(=O)N1CCN(CC(=O)NCCCOCCOCCOCCCN*)CC1; Pyridine(3,5-bisCH2) = c1ncc(C[*:2])cc1C[*:1]; Suc = O=C(CCC(=O)[*:2])[*:1]; Nle = CCCC[C@H](N)C(=O)O; ξC = NC(CS)C(=O)O
Field: tissue uptake at 1 h. Provide a value for each of the molecules that follow.
One number for each entry, in %ID/g.

Examples from the recorded data:
CCCC[C@H](NC(=O)CCC(=O)NCCCOCCOCCOCCCNC(=O)CN1CCN(C(=O)C(CNCCN)CNCCN)CC1)C(=O)N[C@H]1CSCc2cncc(c2)CSCC(C(=O)O)NC(=O)[C@H](Cc2ccccc2)NC(=O)[C@H](CCC(=O)O)NC(=O)[C@H]([C@@H](C)O)NC(=O)[C@@H]2CCCN2C(=O)[C@@H]2CCCN2C1=O (stereo partly drawn) [3BP-4775] ({X1-Suc}-[Nle]CPPTEF[ξC]-OH; linker 2-8 via Pyridine(3,5-bisCH2)) ... 7.88
CCCC[C@H](NC(=O)CCC(=O)NCCCOCCOCCOCCCNC(=O)CN1CCN(C(=O)C(CNCCN)CNCCN)CC1)C(=O)N[C@H]1CSCc2cncc(c2)CSC[C@@H](C(=O)NCCC(=O)O)NC(=O)[C@H](Cc2ccccc2)NC(=O)[C@H](CCC(N)=O)NC(=O)[C@H]([C@@H](C)O)NC(=O)[C@@H]2CCCN2C(=O)[C@@H]2CCCN2C1=O ... 10.5

Item CCCC[C@H](NC(=O)CCOCCOCCOCCOCCOCCOCCNC(=O)C(CNCCN)CNCCN)C(=O)N[C@H]1CSCc2cccc(c2)CSCC(C(=O)O)NC(=O)[C@H](Cc2ccccc2)NC(=O)[C@H](CCC(N)=O)NC(=O)[C@H]([C@@H](C)O)NC(=O)[C@@H]2CCCN2C(=O)[C@@H]2CCCN2C1=O (stereo partly drawn) : provide tissue uptake at 1 h
10.6

====

# Method description: in vivo
# Measurement parameters: swiss nude, mouse, blood pool surrogate (BPS), iv
Numbered stars: 1 amine (or outer) side, 2 acyl side, 3 side chain; on linkers, the order of the positions; unused ones are H or OH. Bridge positions count the residues as written; N and C are the ends. Square brackets hold non-standard residues; d marks the D form. Peptide text beside a SMILES is read from it. * marks the point of attachment. X1 = NCCNCC(CNCCN)C(=O)N1CCN(CC(=O)NCCCOCCOCCOCCCN*)CC1; mXylylene = c1cc(C[*:1])cc(C[*:2])c1; Suc = O=C(CCC(=O)[*:2])[*:1]; Nle = CCCC[C@H](N)C(=O)O; βAla = NCCC(=O)O
Measurement type: tissue uptake at 6 h (%ID/g)
One number for each entry, in %ID/g.

Examples from the recorded data:
CCCC[C@H](NC(=O)CCC(=O)NCCCOCCOCCOCCCNC(=O)CN1CCN(C(=O)C(CNCCN)CNCCN)CC1)C(=O)N[C@H]1CSCc2cncc(c2)CSCC(C(=O)O)NC(=O)[C@H](Cc2ccccc2)NC(=O)[C@H](CCC(N)=O)NC(=O)[C@H]([C@@H](C)O)NC(=O)[C@@H]2CCCN2C(=O)[C@@H]2CCCN2C1=O (stereo partly drawn) [3BP-4774] ... 0.03
CCCC[C@H](NC(=O)CCOCCOCCOCCOCCOCCOCCNC(=O)C(CNCCN)CNCCN)C(=O)N[C@H]1CSCc2cncc(c2)CSCC(C(=O)O)NC(=O)[C@H](Cc2ccccc2)NC(=O)[C@H](CCC(N)=O)NC(=O)[C@H]([C@@H](C)O)NC(=O)[C@@H]2CCCN2C(=O)[C@@H]2CCCN2C1=O (stereo partly drawn) [3BP-4550] ... 0.04

Let us move to another entry and its tissue uptake at 6 h.
Item CCCC[C@H](NC(=O)CCC(=O)NCCCOCCOCCOCCCNC(=O)CN1CCN(C(=O)C(CNCCN)CNCCN)CC1)C(=O)N[C@H]1CSCc2cccc(c2)CSC[C@@H](C(=O)NCCC(=O)O)NC(=O)[C@H](Cc2ccccc2)NC(=O)[C@H](CCC(=O)O)NC(=O)[C@H]([C@@H](C)O)NC(=O)[C@@H]2CCCN2C(=O)[C@@H]2CCCN2C1=O [3BP-4784] ({X1-Suc}-[Nle]CPPTEFC[βAla]-OH; linker 2-8 via mXylylene) : provide tissue uptake at 6 h
0.38

====

Please consider the recorded IC50 for UniProt:Q12884 in what follows.
Sequence (Q12884 whole entry): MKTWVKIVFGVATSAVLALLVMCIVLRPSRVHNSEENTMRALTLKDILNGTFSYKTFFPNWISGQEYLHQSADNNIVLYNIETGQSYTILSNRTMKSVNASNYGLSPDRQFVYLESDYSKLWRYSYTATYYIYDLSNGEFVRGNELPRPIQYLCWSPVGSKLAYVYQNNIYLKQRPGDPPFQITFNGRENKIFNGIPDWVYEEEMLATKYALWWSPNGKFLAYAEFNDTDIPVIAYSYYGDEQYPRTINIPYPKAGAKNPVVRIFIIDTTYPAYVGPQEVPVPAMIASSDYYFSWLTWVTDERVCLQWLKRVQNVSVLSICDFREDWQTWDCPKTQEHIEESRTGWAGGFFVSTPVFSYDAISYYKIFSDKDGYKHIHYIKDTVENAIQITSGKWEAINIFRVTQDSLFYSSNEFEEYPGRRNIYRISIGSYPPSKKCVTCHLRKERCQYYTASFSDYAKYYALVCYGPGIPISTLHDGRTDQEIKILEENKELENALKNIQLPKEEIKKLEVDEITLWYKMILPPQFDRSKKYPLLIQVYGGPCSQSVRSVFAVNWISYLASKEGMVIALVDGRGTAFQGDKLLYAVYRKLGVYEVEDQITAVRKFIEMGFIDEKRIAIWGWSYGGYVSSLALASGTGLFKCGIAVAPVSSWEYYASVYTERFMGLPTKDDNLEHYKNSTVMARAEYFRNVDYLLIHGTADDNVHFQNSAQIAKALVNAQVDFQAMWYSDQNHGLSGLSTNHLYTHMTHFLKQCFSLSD
Numbered stars: 1 amine (or outer) side, 2 acyl side, 3 side chain; on linkers, the order of the positions; unused ones are H or OH. Bridge positions count the residues as written; N and C are the ends. Square brackets hold non-standard residues; d marks the D form. Peptide text beside a SMILES is read from it. * marks the point of attachment. X18 = NCCNCC(CNCCN)C(=O)N[C@@H](CCC(=O)O)C(=O)NCCCOCCOCCOCCCN*; mXylylene = c1cc(C[*:1])cc(C[*:2])c1; Suc = O=C(CCC(=O)[*:2])[*:1]; Nle = CCCC[C@H](N)C(=O)O

Hi! Can you tell me IC50 for each of these compounds?
1. CCCC[C@H](NC(=O)CCC(=O)NCCCOCCOCCOCCCNC(=O)[C@H](CCC(=O)O)NC(=O)C(CNCCN)CNCCN)C(=O)N[C@H]1CSCc2cccc(c2)CSC[C@@H](C(=O)O)NC(=O)[C@H](Cc2ccccc2)NC(=O)[C@H](CCC(=O)O)NC(=O)[C@H]([C@@H](C)O)NC(=O)[C@@H]2CCCN2C(=O)[C@@H]2CCCN2C1=O [3BP-4222] ({X18-Suc}-[Nle]CPPTEFC-OH; linker 2-8 via mXylylene)
2. CCCC[C@H](NC(=O)CCC(=O)NCCCOCCOCCOCCCNC(=O)CN1CCN(CC(=O)O)CCN(CC(=O)O)CC1)C(=O)N[C@H]1CSCc2cccc(c2)CSCC(C(=O)O)NC(=O)[C@H](Cc2ccccc2)NC(=O)[C@H](CCC(N)=O)NC(=O)[C@H]([C@@H](C)O)NC(=O)[C@@H]2CCCN2C(=O)[C@@H]2CCCN2C1=O (some centres unmarked)

1. 10 to 79.4 nM
2. < 10 nM
